# Lookup of reported log10 EC50 keyed by entry
# Target Entity: RXRγ (Mus musculus, UniProt P28705)
# Sequence (P28705 1-463): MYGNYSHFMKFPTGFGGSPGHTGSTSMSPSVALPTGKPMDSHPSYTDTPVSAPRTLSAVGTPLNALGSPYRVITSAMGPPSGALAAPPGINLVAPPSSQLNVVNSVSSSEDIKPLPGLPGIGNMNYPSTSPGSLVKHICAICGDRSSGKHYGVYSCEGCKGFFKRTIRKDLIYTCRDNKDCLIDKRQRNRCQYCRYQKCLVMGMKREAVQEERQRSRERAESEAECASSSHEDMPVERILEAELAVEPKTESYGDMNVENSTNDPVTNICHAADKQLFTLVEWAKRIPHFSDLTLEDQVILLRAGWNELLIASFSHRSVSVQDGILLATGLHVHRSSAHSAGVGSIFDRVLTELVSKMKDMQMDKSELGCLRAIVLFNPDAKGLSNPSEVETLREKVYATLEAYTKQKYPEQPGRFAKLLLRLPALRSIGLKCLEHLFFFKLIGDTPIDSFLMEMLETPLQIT
# Test Summary: co-transfection assay (RAR/RXR agonist activity, luciferase reporter in CV-1 cells)
# Applied Conditions: read-out: RXRγ Pot
Observed Property: log10 EC50 (log10 of the value in nM)

>>> print(df.to_string())
                                    compound  recorded_measurement
 0  CC(/C=C/CN1CCCc2c1ccc1c2C(C)(C)CCC1(C)C)=C\C(=O)O [Compound 143b]                  2.39
 1  CC(/C=C/C=C1/CCC(C)(C)c2cc3c(cc21)C(C)(C)CCC3(C)C)=C\C(=O)O [Compound 106b]                  2.10
 2  CC(/C=C/C=C1/CCCc2cc3c(cc21)C(C)(C)CCC3(C)C)=C\C(=O)O [Compound 101b]                  1.61
 3  CCN1CC\C(=C/C=C/C(C)=C/C(=O)O)c2cc3c(cc21)C(C)(C)CCC3(C)C [Compound 147b]                  3.17
 4  CC(/C=C/C=C1\CCc2c1ccc1c2C(C)(C)CCC1(C)C)=C\C(=O)O [Compound 135b]                  3.40
 5  CC(/C=C/C(=O)N1CCc2cc3c(cc21)C(C)(C)CCC3(C)C)=C\C(=O)O [Compound 141b]                  3.47
 6  CC(/C=C/CC1CCCc2cc3c(cc21)C(C)(C)CCC3(C)C)=C\C(=O)O (racemic) [Compound 124b]                  1.41
 7  CC(/C=C/C=C1/CCOc2cc3c(cc21)C(C)(C)CCC3(C)C)=C\C(=O)O [Compound 144b]                  1.60
 8  CC(/C=C/CN1CCCCc2cc3c(cc21)C(C)(C)CCC3(C)C)=C\C(=O)O [Compound 138b]                  2.48
 9  CC(/C=C/C=C1\CCCc2cc3c(cc21)C(C)(C)CCC3(C)C)=C\C(=O)O [Compound 109b]                  3.36
10  CC(/C=C/C=C1\CCOc2cc3c(cc21)C(C)(C)CCC3(C)C)=C\C(=O)O [Compound 119b]                  2.87
